experimental protocol: logP determination by HPLC on reversed-phase column (EEC Directive 79/831 Annex V.A8)
Type: physicochemical
measurement conditions: reversed-phase HPLC column (C18); preparation examples; pH 7.5, HPLC C18, 43° C.; read-out: logP (pH 7.5)
experimental readout: chromatographic logP

Ask: Requested read-out: chromatographic logP. Entry: Cc1ccc(C(=O)Nn2c(-c3ccccc3)nc(C)c2C)cc1 [Example I-2]
Result: 2.17
